Across several studies, molecules have been characterized by their IC50 on Vascular endothelial growth factor receptor 2 (Homo sapiens, UniProt P35968); a selection follows.
Sequence (P35968 whole entry): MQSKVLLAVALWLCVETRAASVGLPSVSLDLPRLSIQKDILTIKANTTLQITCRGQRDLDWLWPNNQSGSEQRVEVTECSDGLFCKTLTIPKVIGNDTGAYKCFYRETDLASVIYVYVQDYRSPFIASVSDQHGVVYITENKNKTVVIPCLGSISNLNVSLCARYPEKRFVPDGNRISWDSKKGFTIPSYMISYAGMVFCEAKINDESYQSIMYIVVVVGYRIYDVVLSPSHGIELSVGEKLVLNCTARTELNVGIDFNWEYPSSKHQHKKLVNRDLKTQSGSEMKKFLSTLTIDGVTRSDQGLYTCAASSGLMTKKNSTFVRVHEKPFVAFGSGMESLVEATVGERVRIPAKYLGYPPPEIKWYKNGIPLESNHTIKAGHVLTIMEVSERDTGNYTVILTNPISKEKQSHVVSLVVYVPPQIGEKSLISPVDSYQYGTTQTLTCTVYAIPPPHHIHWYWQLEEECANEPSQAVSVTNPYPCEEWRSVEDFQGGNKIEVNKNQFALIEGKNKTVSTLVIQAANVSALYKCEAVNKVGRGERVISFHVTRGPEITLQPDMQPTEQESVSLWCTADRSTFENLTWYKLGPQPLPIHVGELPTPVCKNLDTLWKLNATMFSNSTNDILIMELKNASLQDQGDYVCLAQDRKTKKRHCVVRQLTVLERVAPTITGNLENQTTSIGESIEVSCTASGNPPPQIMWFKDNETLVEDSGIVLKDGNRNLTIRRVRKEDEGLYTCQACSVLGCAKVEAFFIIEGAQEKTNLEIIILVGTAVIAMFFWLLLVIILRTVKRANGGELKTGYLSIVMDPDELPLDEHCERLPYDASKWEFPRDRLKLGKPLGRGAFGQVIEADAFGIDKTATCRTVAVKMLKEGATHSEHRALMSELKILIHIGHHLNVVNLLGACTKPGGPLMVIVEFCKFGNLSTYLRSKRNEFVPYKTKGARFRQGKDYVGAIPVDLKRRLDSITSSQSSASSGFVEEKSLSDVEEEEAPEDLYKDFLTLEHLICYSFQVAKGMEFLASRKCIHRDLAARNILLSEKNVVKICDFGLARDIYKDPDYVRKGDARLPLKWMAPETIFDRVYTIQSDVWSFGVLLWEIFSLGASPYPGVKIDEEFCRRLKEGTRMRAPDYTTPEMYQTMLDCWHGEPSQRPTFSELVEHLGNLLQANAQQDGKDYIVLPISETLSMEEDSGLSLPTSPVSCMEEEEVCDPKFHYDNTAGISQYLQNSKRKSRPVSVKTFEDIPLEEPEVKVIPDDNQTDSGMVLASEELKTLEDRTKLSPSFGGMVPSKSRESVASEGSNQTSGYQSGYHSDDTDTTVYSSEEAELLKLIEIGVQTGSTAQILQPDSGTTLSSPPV

Examples with their reported IC50 follow.
{"columns": ["molecule", "IC50"],
 "data": [
  ["Cn1cnc(-c2cc(NC(=O)Nc3ccncc3)cc(C(F)(F)F)c2)c1", "223 nM"],
  ["COc1cc2ncnc(Nc3cccc(Cl)c3F)c2cc1CN1CCC1C(N)=O (stereo not given)", "> 10000 nM"]
]}

# return IC50 for each item in the list
1. O=C(NCc1ccc(-c2cc(NC(=O)c3ccc(OCCCN4CCCC4)cc3)[nH]n2)cc1)OCc1ccccc1
2. COc1cc2c(Oc3ccc(NC(=O)c4nnn(-c5ccc(F)cc5)c4C(F)(F)F)cc3F)ccnc2cc1OCCCN1CCCC1
3. CCNC(=O)Nc1ccc(CNc2ncsc2C(=O)Nc2ccc3c(c2)OC(F)(F)O3)cn1

Response given:
1. 240 nM
2. 65.4 nM
3. 7 nM
